experimental details: Oral bioavailability in BALB/c mouse at 20 mg/kg measured after 24 hrs by LC-MS/MS analysis
Format: ADME, organism-based
test settings: in vivo
observed property: bioavailability (%)
Could you give me the number in %? Just the number is fine.

Form field bioavailability, entry Cn1nc(Cc2ccc(NS(N)(=O)=O)cc2)c2ccccc2c1=O : 65.4

* * *

experimental details: MRT (0 to infinity) in BALB/c mouse at 20 mg/kg, po measured after 24 hrs by LC-MS/MS analysis
Assay type: ADME, organism-based
test settings: in vivo
observed property: MRT inf (h)
Could you give me the number in h? Just the number is fine.

Form field MRT inf, entry Cn1nc(Cc2ccc(NS(N)(=O)=O)cc2)c2ccccc2c1=O : 3.81

* * *

experimental details: Metabolic stability in human liver microsome assessed as intrinsic clearance by LC/MS analysis
Type: ADME
test settings: liver microsomes, read-out: CLH
observed property: CLint scaled

Form field CLint scaled, entry Cn1nc(Cc2ccc(NS(N)(=O)=O)cc2)c2ccccc2c1=O : < 0.869 L/h/kg

* * *

study target: Stimulator of interferon genes protein (Homo sapiens)
experimental details: Activation of STING-mediated immune response in human HCT-116 cells transfected with ISRE reporter assessed as increase in cGAMP-induced ISRE activation by measuring fold change at 25 to 100 uM preincubated with compound for 1 hrs followed by cGAMP addition and measured after 48 hrs by luciferase reporter gene assay
Format: cell-based
test settings: filed as activator, dose 25-100 µM, time 49.0 hrs
Please go through the items and note down their fold change (FC).
The response must contain the number and no unit.

Stimulator of interferon genes protein (Homo sapiens) data for COc1cc2c(Cc3ccc4c(c3)CCN4S(N)(=O)=O)nn(C)c(=O)c2cc1OC ; its fold change (FC): 3.23

Stimulator of interferon genes protein (Homo sapiens) data for COc1cc2c(Cc3ccc4c(c3)CCN4S(N)(=O)=O)n[nH]c(=O)c2cc1OC ; its fold change (FC): 1.53

Stimulator of interferon genes protein (Homo sapiens) data for NS(=O)(=O)Nc1ccc(Cc2n[nH]c(=O)c3ccccc23)cc1 ; its fold change (FC): 1.85

Stimulator of interferon genes protein (Homo sapiens) data for Cn1nc(Cc2ccc(NS(N)(=O)=O)cc2)c2ccccc2c1=O ; its fold change (FC): 3.63

Stimulator of interferon genes protein (Homo sapiens) data for COc1cc2c(Cc3ccc(NS(N)(=O)=O)cc3)n[nH]c(=O)c2cc1OC ; its fold change (FC): 2.49

* * *

experimental details: AUC (0 to t) in BALB/c mouse at 5 mg/kg, iv measured after 24 hrs by LC-MS/MS analysis
Type: ADME, organism-based
Set-up: dose 5 mg/kg, time 24 hrs, route iv
test settings: in vivo
observed property: AUC(0-t) at 24 h
Reply with the number and its unit after it.

Form field AUC(0-t) at 24 h, entry Cn1nc(Cc2ccc(NS(N)(=O)=O)cc2)c2ccccc2c1=O : 30400 ng·h/mL

* * *

experimental details: MRT (0 to t) in BALB/c mouse at 5 mg/kg, iv measured after 24 hrs by LC-MS/MS analysis
Format: ADME, organism-based
test settings: in vivo
observed property: MRT last at 24 h
Reply with the number and its unit after it.

Form field MRT last at 24 h, entry Cn1nc(Cc2ccc(NS(N)(=O)=O)cc2)c2ccccc2c1=O : 2.83 h

* * *

experimental details: Protein binding in human plasma assessed as unbound fraction by equilibrium dialysis based LC-MS/MS analysis
Type: ADME, cell-free
observed property: fraction unbound
The response must contain the number and no unit.

Form field fraction unbound, entry Cn1nc(Cc2ccc(NS(N)(=O)=O)cc2)c2ccccc2c1=O : 0.18

* * *

study target: Ectonucleotide pyrophosphatase/phosphodiesterase family member 1 (Homo sapiens)
experimental details: Inhibition of recombinant human ENPP1 using cGAMP as substrate assessed as inhibition of cGAMP hydrolysis preincubated for 5 to 10 mins followed by substrate addition and measured after 90 mins by AMP-Glo reagent based luminescence plate reader analysis
pIC50: −log10 of the molar value.
Where pIC50 equals or exceeds 6, the correct label is Criterion met; where it does not, the label is Criterion not met.

Does COc1cc2c(N3CCC(CNS(N)(=O)=O)CC3)nn(C)c(=O)c2cc1OC have a reported pIC50 of at least 6?
Criterion met

Does COc1cc2c(Cc3ccc(N(C)S(N)(=O)=O)cc3)n[nH]c(=O)c2cc1OC have a reported pIC50 of at least 6?
Criterion met

Does COc1ccc2c(-c3ccc(CNS(N)(=O)=O)cc3)n[nH]c(=O)c2c1 have a reported pIC50 of at least 6?
Criterion met

Does NS(=O)(=O)Nc1ccc(Cc2n[nH]c(=O)c3ccccc23)c(F)c1 have a reported pIC50 of at least 6?
Criterion met

Does Cn1nc(-c2ccc3c(c2)CCN(S(N)(=O)=O)C3)c2ccccc2c1=O have a reported pIC50 of at least 6?
Criterion not met

Does COc1cc2c(Cc3ccc4c(c3)CCN4S(N)(=O)=O)nn(C)c(=O)c2cc1OC have a reported pIC50 of at least 6?
Criterion met

* * *

study target: Ectonucleotide pyrophosphatase/phosphodiesterase family member 1 (Homo sapiens)
Sequence (P22413 whole entry): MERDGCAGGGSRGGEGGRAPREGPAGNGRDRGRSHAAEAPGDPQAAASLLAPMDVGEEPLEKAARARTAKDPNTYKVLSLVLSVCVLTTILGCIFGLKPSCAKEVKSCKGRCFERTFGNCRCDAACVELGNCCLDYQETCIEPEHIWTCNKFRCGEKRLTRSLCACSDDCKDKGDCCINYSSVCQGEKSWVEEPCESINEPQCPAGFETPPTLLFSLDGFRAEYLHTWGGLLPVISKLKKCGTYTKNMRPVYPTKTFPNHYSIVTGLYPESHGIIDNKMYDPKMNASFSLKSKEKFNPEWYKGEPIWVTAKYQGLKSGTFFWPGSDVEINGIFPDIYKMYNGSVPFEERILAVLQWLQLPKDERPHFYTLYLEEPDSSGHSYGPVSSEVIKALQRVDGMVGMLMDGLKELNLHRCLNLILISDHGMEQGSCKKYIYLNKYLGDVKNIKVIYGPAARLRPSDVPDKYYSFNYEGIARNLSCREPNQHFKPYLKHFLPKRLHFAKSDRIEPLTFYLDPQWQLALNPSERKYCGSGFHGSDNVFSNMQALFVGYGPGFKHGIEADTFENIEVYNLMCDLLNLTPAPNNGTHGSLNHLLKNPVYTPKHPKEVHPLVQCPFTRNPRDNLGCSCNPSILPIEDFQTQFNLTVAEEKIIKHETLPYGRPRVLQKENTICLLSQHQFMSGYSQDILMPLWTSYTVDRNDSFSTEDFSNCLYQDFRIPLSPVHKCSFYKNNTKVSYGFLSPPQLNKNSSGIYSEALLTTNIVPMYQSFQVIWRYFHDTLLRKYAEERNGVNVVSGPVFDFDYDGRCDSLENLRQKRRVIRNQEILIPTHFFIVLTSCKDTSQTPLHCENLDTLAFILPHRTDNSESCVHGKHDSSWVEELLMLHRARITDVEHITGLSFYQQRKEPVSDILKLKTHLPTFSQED
experimental details: Inhibition of recombinant human ENPP1 using cGAMP as substrate assessed as inhibition of cGAMP hydrolysis preincubated for 5 to 10 mins followed by substrate addition and measured after 90 mins by AMP-Glo reagent based luminescence plate reader analysis
observed property: pIC50
Remember, pIC50 is on a log scale: it is -log10 of the molar concentration.

Ectonucleotide pyrophosphatase/phosphodiesterase family member 1 (Homo sapiens) data for Cn1nc(-c2ccc(CCS(N)(=O)=O)cc2)c2ccccc2c1=O ; its pIC50: 5.74

Ectonucleotide pyrophosphatase/phosphodiesterase family member 1 (Homo sapiens) data for COc1cc2c(Cc3ccc4c(c3)CCN4S(N)(=O)=O)n[nH]c(=O)c2cc1OC ; its pIC50: 6.68

Ectonucleotide pyrophosphatase/phosphodiesterase family member 1 (Homo sapiens) data for NS(=O)(=O)NCc1ccc(-c2n[nH]c(=O)c3ccccc23)cc1C(F)(F)F ; its pIC50: 6.42

Ectonucleotide pyrophosphatase/phosphodiesterase family member 1 (Homo sapiens) data for NS(=O)(=O)NCC1CCN(c2n[nH]c(=O)c3ccccc23)CC1 ; its pIC50: 6.36

Ectonucleotide pyrophosphatase/phosphodiesterase family member 1 (Homo sapiens) data for NS(=O)(=O)Nc1ccc(Cc2n[nH]c(=O)c3ccccc23)cc1C(F)(F)F ; its pIC50: 5.66

Ectonucleotide pyrophosphatase/phosphodiesterase family member 1 (Homo sapiens) data for NS(=O)(=O)Nc1ccc(Cc2n[nH]c(=O)c3ccccc23)cc1 ; its pIC50: 7.41

Ectonucleotide pyrophosphatase/phosphodiesterase family member 1 (Homo sapiens) data for NS(=O)(=O)Nc1ccc(Cc2n[nH]c(=O)c3ccccc23)cc1F ; its pIC50: 6.53

Ectonucleotide pyrophosphatase/phosphodiesterase family member 1 (Homo sapiens) data for COc1cc2c(-c3ccc(CNS(N)(=O)=O)cc3)n[nH]c(=O)c2cc1OC ; its pIC50: 7.43

Ectonucleotide pyrophosphatase/phosphodiesterase family member 1 (Homo sapiens) data for Cn1nc(N2CCC(CNS(N)(=O)=O)CC2)c2ccccc2c1=O ; its pIC50: 5.61

Ectonucleotide pyrophosphatase/phosphodiesterase family member 1 (Homo sapiens) data for NS(=O)(=O)NCc1ccc(-c2nn(Cc3ccccc3)c(=O)c3ccccc23)cc1 ; its pIC50: 5.84

Ectonucleotide pyrophosphatase/phosphodiesterase family member 1 (Homo sapiens) data for Cn1nc(Cc2ccc(NS(N)(=O)=O)cc2)c2ccccc2c1=O ; its pIC50: 7.17

Ectonucleotide pyrophosphatase/phosphodiesterase family member 1 (Homo sapiens) data for NS(=O)(=O)NCc1ccc(-c2n[nH]c(=O)c3ccccc23)cc1 ; its pIC50: 6.86

Ectonucleotide pyrophosphatase/phosphodiesterase family member 1 (Homo sapiens) data for COc1cc2c(Cc3ccc(NS(N)(=O)=O)cc3)n[nH]c(=O)c2cc1OC ; its pIC50: 7.16

Ectonucleotide pyrophosphatase/phosphodiesterase family member 1 (Homo sapiens) data for COc1cc2c(N3CCC(CNS(N)(=O)=O)CC3)n[nH]c(=O)c2cc1OC ; its pIC50: 6.40

Ectonucleotide pyrophosphatase/phosphodiesterase family member 1 (Homo sapiens) data for Cn1nc(-c2ccc(CNS(N)(=O)=O)cc2)c2ccccc2c1=O ; its pIC50: 6.54

Ectonucleotide pyrophosphatase/phosphodiesterase family member 1 (Homo sapiens) data for COc1cc2c(Cc3ccc(NS(N)(=O)=O)cc3)nn(C)c(=O)c2cc1OC ; its pIC50: 6.93

Ectonucleotide pyrophosphatase/phosphodiesterase family member 1 (Homo sapiens) data for COc1cc2c(Cc3ccc(N(C)S(N)(=O)=O)cc3)nn(C)c(=O)c2cc1OC ; its pIC50: 6.61
